# measurement-notes: chemical genetic growth profiling, strain panel (AID 1159580);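 further: tested at 20 µM; growth read once vehicle control cultures reached saturation at 30 °C; 1 = growth at the plate median or of vehicle wells; lower values mean less growth of the strain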
# cond: S. cerevisiae deletion strains, growth OD, locus YER155C, strain BEM2 (second series)
About 2,000 (36%) of roughly 5,500 compounds were called active. Roughly 18% stayed inconclusive and do not appear here. No stated cut-off is given here; in the data, active means normalized growth mostly below about 0.91 (no sharp cut-off); inconclusive means no clear call, values can overlap the other calls; inactive means mostly above about 0.92. This is one part of the list.
Classes used: TRUE for active, FALSE for inactive

[
  {
    "molecule": "O=C(O)c1cc(=O)c(O)c2c(O)c(O)c(O)cc2c1",
    "group-label": "TRUE"
  },
  {
    "molecule": "CC[C@@H](C(=O)[C@@H](C)[C@@H](O)[C@H](C)[C@@H]1O[C@@H]([C@@H](CC)C(=O)O)CC[C@@H]1C)[C@H]1OC2(C=C[C@@H](O)[C@]3(CC[C@@](C)([C@H]4CC[C@](O)(CC)[C@H](C)O4)O3)O2)[C@H](C)C[C@@H]1C (some centres not stated)",
    "group-label": "FALSE"
  },
  {
    "molecule": "N[C@@H](CCC(=O)N[C@@H](CCSC(CC(=O)O)C(=O)O)C(=O)NCC(=O)O)C(=O)O (some centres not stated)",
    "group-label": "FALSE"
  },
  {
    "molecule": "CCOc1ccc2c(c1)C(C)=CC(C)(C)N2",
    "group-label": "FALSE"
  },
  {
    "molecule": "CCOC(=O)c1ccc(N)cc1",
    "group-label": "FALSE"
  },
  {
    "molecule": "O=C1O[C@@H](CO)[C@H](O)[C@@H](O)[C@@H]1O",
    "group-label": "FALSE"
  },
  {
    "molecule": "c1cc2c(cc1[C@H]1OC[C@H]3[C@@H]1CO[C@H]3c1ccc3c(c1)OCO3)OCO2",
    "group-label": "TRUE"
  },
  {
    "molecule": "COc1ccc(CN(CCN(C)C)c2ncccn2)cc1",
    "group-label": "FALSE"
  },
  {
    "molecule": "O=C(O)c1ccc2c(c1)OCO2",
    "group-label": "FALSE"
  },
  {
    "molecule": "C[C@](N)(Cc1ccc(O)c(O)c1)C(=O)O",
    "group-label": "FALSE"
  },
  {
    "molecule": "Nc1nc2ncc(CNc3ccc(C(=O)N[C@@H](CCC(=O)O)C(=O)O)cc3)nc2c(=O)[nH]1",
    "group-label": "FALSE"
  },
  {
    "molecule": "NCc1ccc(S(N)(=O)=O)cc1",
    "group-label": "FALSE"
  },
  {
    "molecule": "CCOC(=O)CCCCCCCCCCCCC1C=CCC1 (configuration not stated)",
    "group-label": "TRUE"
  },
  {
    "molecule": "CN(Cc1cc(Br)cc(Br)c1N)C1CCCCC1",
    "group-label": "FALSE"
  },
  {
    "molecule": "Nc1ccc(S(=O)(=O)Nc2nccs2)cc1",
    "group-label": "FALSE"
  },
  {
    "molecule": "O=C(O)c1cc(O)c(O)c(O)c1",
    "group-label": "FALSE"
  },
  {
    "molecule": "COc1ccc(C[C@H](N)C(=O)N[C@@H]2[C@@H](CO)OC(n3cnc4c(N(C)C)ncnc43)[C@@H]2O)cc1 (some centres not stated)",
    "group-label": "FALSE"
  },
  {
    "molecule": "CCOP(=S)(OCC)Oc1ccc2c(C)c(Cl)c(=O)oc2c1",
    "group-label": "FALSE"
  },
  {
    "molecule": "S=c1[nH]c2ccccc2s1",
    "group-label": "FALSE"
  },
  {
    "molecule": "Nc1nccs1",
    "group-label": "TRUE"
  },
  {
    "molecule": "CCC(COC(=O)c1cc(OC)c(OC)c(OC)c1)(c1ccccc1)N(C)C (configuration not stated)",
    "group-label": "FALSE"
  },
  {
    "molecule": "CC1(C)O[C@@H]2[C@@H](CO[C@@]3(COS(N)(=O)=O)OC(C)(C)O[C@@H]23)O1",
    "group-label": "FALSE"
  }
]

* * *

# measurement-notes: chemical genetic growth profiling, strain panel (AID 1159580)
# cond: S. cerevisiae deletion strains, growth OD, locus YLR039C, strain RIC1
Among all 5,500 compounds or so, about 2,000 (36%) were called active. Inconclusive results (about 18%) are left out. Rule as the data show it: active = normalized growth mostly below about 0.91 (no sharp cut-off); inconclusive = no clear call, values can overlap the other calls; inactive = mostly above about 0.92. The list shows a part of the results.
Outcomes: active, inactive

[
  {
    "compound": "O=C(CCCCCCCCC(=O)c1ccccc1)c1ccccc1",
    "group-label": "inactive"
  },
  {
    "compound": "COC(=O)c1ccc(C#Cc2ccccc2)o1",
    "group-label": "active"
  },
  {
    "compound": "O=C(O)CCC(=O)c1ccc(-c2ccccc2)cc1",
    "group-label": "inactive"
  },
  {
    "compound": "CCCNC(C)C(=O)Nc1ccccc1C (configuration not stated)",
    "group-label": "inactive"
  },
  {
    "compound": "CCC(=O)c1ccc(-c2ccccc2)cc1",
    "group-label": "active"
  },
  {
    "compound": "CC(=O)c1ccc(-c2ccc(C(C)=O)cc2)cc1",
    "group-label": "inactive"
  },
  {
    "compound": "O=c1cccc2n1C[C@H]1CNCC2C1",
    "group-label": "inactive"
  }
]

* * *

# measurement-notes: chemical genetic growth profiling, strain panel (AID 1159580);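 further: tested at 20 µM; growth read once vehicle control cultures reached saturation at 30 °C; 1 = growth at the plate median or of vehicle wells; lower values mean less growth of the strain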
# cond: S. cerevisiae deletion strains, growth OD, locus YJR043C, strain POL32, active compounds read low
Screen size: about 5,500 compounds; about 2,000 (36%) were called active. Another 18% or so got no clear call; they are omitted. This is one part of the list.
In this section we review reported normalized growth values for a set of compounds.

[
  {
    "smiles-str": "CC(=O)OC/C=C(C)/C=C/C=C(C)/C=C/C1=C(C)CCCC1(C)C",
    "normalized growth": "1.02 (inactive)"
  },
  {
    "smiles-str": "CC1=C(/C=C/C(C)=C/C=C/C(C)=C/CO)C(C)(C)CCC1",
    "normalized growth": "0.985 (inactive)"
  },
  {
    "smiles-str": "CC1=C(/C=C/C(C)=C/C=C/C(C)=C/C=C/C=C(C)/C=C/C=C(C)/C=C/C2=C(C)CCCC2(C)C)C(C)(C)CCC1",
    "normalized growth": "1.01 (inactive)"
  },
  {
    "smiles-str": "CCOP(=S)(OCC)Oc1ccc2c(C)c(Cl)c(=O)oc2c1",
    "normalized growth": "0.996 (inactive)"
  },
  {
    "smiles-str": "N/C(=N\\OC(=O)c1ccno1)c1ccc(C(F)(F)F)cc1",
    "normalized growth": "0.988 (inactive)"
  }
]

* * *

# measurement-notes: chemical genetic growth profiling, strain panel (AID 1159580);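 further: tested at 20 µM; growth read once vehicle control cultures reached saturation at 30 °C; 1 = growth at the plate median or of vehicle wells; lower values mean less growth of the strain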
# cond: S. cerevisiae deletion strains, growth OD, locus YPR111W, strain DBF20, active compounds read low
About 2,000 (36%) of roughly 5,500 compounds were called active. Inconclusive results (about 18%) are left out. The list shows a part of the results.
// assign 1.0 if normalized growth falls strictly below 0.9, else 0.0 (ties count as 0.0)

[
  {
    "compound": "CC1(C)C/C(=N/Nc2ccc(C(F)(F)F)cc2)c2cc(C(C)(C)C)c(O)c(O)c2O1",
    "group-label": 1.0
  },
  {
    "compound": "COc1cc(N=Cc2cc(Cl)cc(Cl)c2OC(=O)c2cc(OC)c(OC)c(OC)c2)c(OC)cc1Cl",
    "group-label": 0.0
  },
  {
    "compound": "OC(c1ccc(C(F)(F)F)cc1)c1cccc(C(F)(F)F)c1 (stereo not given)",
    "group-label": 0.0
  },
  {
    "compound": "O=C(Nc1ccccn1)c1cc(-c2ccccc2)c(C(F)(F)F)s1",
    "group-label": 0.0
  }
]

* * *

# measurement-notes: chemical genetic growth profiling, strain panel (AID 1159580);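 further: tested at 20 µM; growth read once vehicle control cultures reached saturation at 30 °C; 1 = growth at the plate median or of vehicle wells; lower values mean less growth of the strain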
# cond: S. cerevisiae deletion strains, growth OD, locus YPL240C, strain hsp82, active compounds read low
Out of some 5,500 compounds screened, about 2,000 (36%) were called active. Another 18% or so got no clear call; they are omitted. The list shows a part of the results.

[
  {
    "compound": "O=c1cccc2n1C[C@H]1CNCC2C1",
    "normalized growth": 0.993
  },
  {
    "compound": "CC1=C(/C=C/C(C)=C/C=C/C(C)=C\\C(=O)O)C(C)(C)CCC1",
    "normalized growth": 0.977
  },
  {
    "compound": "N[C@@H](CCC(=O)N[C@@H](CCSC(CC(=O)O)C(=O)O)C(=O)NCC(=O)O)C(=O)O (some centres not stated)",
    "normalized growth": 1.01
  },
  {
    "compound": "CN(Cc1cc(Br)cc(Br)c1N)C1CCCCC1",
    "normalized growth": 1.02
  },
  {
    "compound": "Nc1c(Br)cc(Br)cc1CNC1CCC(O)CC1 (configuration not stated)",
    "normalized growth": 1.01
  },
  {
    "compound": "O=C(O)c1cc(O)c(O)c(O)c1",
    "normalized growth": 1.01
  },
  {
    "compound": "S=c1[nH]c2ccccc2s1",
    "normalized growth": 0.986
  },
  {
    "compound": "O=C(O)CCC(=O)c1ccc(-c2ccccc2)cc1",
    "normalized growth": 0.999
  },
  {
    "compound": "CCCN(CCC)C(=O)C(CCC(=O)O)NC(=O)c1ccccc1 (configuration not stated)",
    "normalized growth": 0.986
  },
  {
    "compound": "CC1=C(/C=C/C(C)=C/C=C/C(C)=C/CO)C(C)(C)CCC1",
    "normalized growth": 1.01
  },
  {
    "compound": "O=C(NC(Cc1cc(=O)[nH]c2ccccc12)C(=O)O)c1ccc(Cl)cc1 (configuration not stated)",
    "normalized growth": 0.982
  },
  {
    "compound": "O=C(O)c1cc(=O)c(O)c2c(O)c(O)c(O)cc2c1",
    "normalized growth": 0.872
  }
]
